Tested on: T cells isolated from mouse spleen
Assay: T cell proliferation inhibition, CFSE flow cytometry, CD3/CD28 activation
Format: cell-based
Conditions: compound 10 nM, CD3/CD28 activated, 3 days
Description: To verify the T cell proliferation inhibitory effect of the compounds according to the present invention, the following experiment was performed based on flow cytometry analysis using carboxyfluorescein diacetate succinimidyl ester (CFSE), a fluorescent dye that binds to intracellular molecules via covalent bonds. […] The proliferation inhibition rate (%) was calculated using the following formula: […]
OBSERVABLE: Proliferation inhibition rate (%)
Unit % implied. Number only.

Query: Recorded Proliferation inhibition rate (%) of `Nc1ncccc1C(=O)NCCCCCCCCCCCCN1CC(F)(F)C1` , please.
Response: 0.00

Query: Record: `CC(C)(C)OC(=O)N1CCN(CCCCCCCCCCCCNC(=O)c2cccnc2N)CC1`
Response: 0.00

Query: Record: `CC(C)N1CCN(CCCCCCCCCCCCNC(=O)c2cccnc2N)CC1`
Response: 100.00

Query: Record: `CC1(C)CCN(CCCCCCCCCCCCNC(=O)c2cccnc2N)C1`
Response: −0.80

Query: Record: `Cc1ccc(OC2CCN(CCCCCCCCCCCCNC(=O)c3cccnc3N)CC2)cc1`
Response: 0.77

Query: Record: `CN1CCN(CCCCCCCCCCCCNC(=O)c2cccnc2F)CC1`
Response: 0.00

Query: Record: `Nc1ncccc1C(=O)NCCCCCCCCCCCCN1CC=CC1`
Response: 0.00

* * *

System: Human B Lymphocyte cell line, SU-DHL-8
Test: Relative cell viability, CCK-8, SU-DHL-8
Format: cell-based
Settings: SU-DHL-8, 50 μM, 48 hours
OBSERVABLE: Relative cell viability (%)
Unit % implied. Number only.

Query: Recorded Relative cell viability (%) of CC1(C)CN(CCCCCCCCCCCCC(=O)Nc2nc(N)c3[nH]cnc3n2)CCO1 [Compound 11] , please.
Response: 3.29

Query: Record: Nc1ncccc1C(=O)NCCCCCCCCCCCCN1CCS(=O)(=O)CC1 [Compound 25]
Response: 0.95

Query: Record: Cc1ccc(C2CCN(CCCCCCCCCCCCNC(=O)c3cccnc3N)CC2)cc1 [Compound 55]
Response: 0.97

Query: Record: CN1CCN(C(=O)OC(C)(C)C)CC1CCCCCCCCNC(=O)c1cccnc1N (centres unmarked) [Compound 12]
Response: 1.13

Query: Record: Cc1ccc(OC2CCN(CCCCCCCCCCCCNC(=O)c3cccnc3N)CC2)cc1 [Compound 51]
Response: 0.48

* * *

For each entry below, report its Relative cell viability (%) value.
System: Human B Lymphocyte cell line, SU-DHL-8
Experiment: Relative cell viability, CCK-8, SU-DHL-8
Type: cell-based
Conditions: SU-DHL-8, 1 μM, 48 hours
Unit % implied. Number only.

Query: Quick check: Relative cell viability (%) on Human B Lymphocyte cell line, SU-DHL-8, item `Cl.Nc1ncccc1C(=O)NCCCCCCCCCCCCN1CC[C@H](N)C1` ?
Response: 9.20

Query: Record: Nc1ncccc1C(=O)NCCCCCCCCCCCCN1CCC(F)C1 (stereo not shown)
Response: 1.70

Query: Record: `CC1(C)CN(CCCCCCCCCCCCC(=O)Nc2nc(N)c3[nH]cnc3n2)CCO1`
Response: 7.63

Query: Record: CN1CCN(C(=O)OC(C)(C)C)CC1CCCCCCCCNC(=O)c1cccnc1N (stereo not shown)
Response: 7.60
